Substrate: O=C1CCCC/C1=C\c1ccccc1
Test: purified protein
Type: biochemical, Bacillus subtilis
Conditions: 1.0 mM NADPH, 10 μM enzyme, PBS 100 mM, pH 7.5, 30 °C
Measure name: Km

Protein	Km
YqjM (Bacillus subtilis subsp. subtilis str. 168; I69G) (protein, ene-reductase, FMN enzyme) ARKLFTPITIKDMTLKNRIVMSPMCMYSSHEKDGKLTPFHMAHYISRAIGQVGLIIVEASAVNPQGRGTDQDLGIWSDEHIEGFAKLTEQVKEQGSKIGIQLAHAGRKAELEGDIFAPSAIAFDEQSATPVEMSAEKVKETVQEFKQAAARAKEAGFDVIEIHAAHGYLIHEFLSPLSNHRTDEYGGSPENRYRFLREIIDEVKQVWDGPLFVRVSASDYTDKGLDIADHIGFAKWMKEQGVDLIDCSSGALVHADINVFPGYQVSFAEKIREQADMATGAVGMITDGSMAEEILQNGRADLIFIGRELLRDPFFARTAAKQLNTEIPAPVQYERGW	3480 ± 110 µM

Fill in: Km of YqjM (Bacillus subtilis subsp. subtilis str. 168; C26G/I69Y) (protein, ene-reductase, FMN enzyme) ARKLFTPITIKDMTLKNRIVMSPMGMYSSHEKDGKLTPFHMAHYISRAIGQVGLIIVEASAVNPQGRYTDQDLGIWSDEHIEGFAKLTEQVKEQGSKIGIQLAHAGRKAELEGDIFAPSAIAFDEQSATPVEMSAEKVKETVQEFKQAAARAKEAGFDVIEIHAAHGYLIHEFLSPLSNHRTDEYGGSPENRYRFLREIIDEVKQVWDGPLFVRVSASDYTDKGLDIADHIGFAKWMKEQGVDLIDCSSGALVHADINVFPGYQVSFAEKIREQADMATGAVGMITDGSMAEEILQNGRADLIFIGRELLRDPFFARTAAKQLNTEIPAPVQYERGW is ___
1100 ± 30 µM
